protocolDetails: total protein half-life in vivo (active degradation + dilution); higher = more stable protein
measurementConditions: E. coli NCM3722 delta-hslV; growth: N-lim chemostat; doubling time 6 h
metricName: total protein half-life in vivo (h)
Numeric answer only, unit h assumed.

Consider the following illustrative entries.
[
  {
    "biopolymerSequence": "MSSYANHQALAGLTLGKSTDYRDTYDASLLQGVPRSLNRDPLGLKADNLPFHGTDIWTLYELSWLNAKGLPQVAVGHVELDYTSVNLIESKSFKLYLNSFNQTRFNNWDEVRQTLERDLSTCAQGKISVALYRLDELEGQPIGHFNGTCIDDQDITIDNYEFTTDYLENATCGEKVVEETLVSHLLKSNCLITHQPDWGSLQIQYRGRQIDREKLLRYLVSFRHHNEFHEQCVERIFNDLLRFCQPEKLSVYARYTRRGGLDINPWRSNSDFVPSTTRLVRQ",
    "reportedValue": 5
  },
  {
    "biopolymerSequence": "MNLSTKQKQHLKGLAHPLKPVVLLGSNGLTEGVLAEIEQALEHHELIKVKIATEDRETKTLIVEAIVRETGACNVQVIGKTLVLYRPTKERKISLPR [P0AGK4]",
    "reportedValue": 6.12
  }
]

stdin: Report total protein half-life in vivo for MKILVTGGAGFIGSAVVRHIINNTQDSVVNVDKLTYAGNRESLADVSDSERYVFEHADICDAPAMARIFAQHQPDAVMHLAAESHVDRSITGPAAFIETNIVGTYVLLEAARNYWSALDSDKKNSFRFHHISTDEVYGDLPHPDEVNNTEELPLFTETTAYAPSSPYSASKASSDHLVRAWKRTYGLPTIVTNCSNNYGPYHFPEKLIPLVILNALEGKALPIYGKGDQIRDWLYVEDHARALYTVVTEGKAGETYNIGGHNEKKNIDVVLTICDLLDEIVPKEKSYREQITYVADRPGHDRRYAIDAEKIGRALGWKPQETFESGIRKTVEWYLSNTKWVDNVKSGAYQSWIEQNYEGRQ please.
stdout: 5.31
